system: CYP450; assay: Drug metabolism in KM rat liver microsomes assessed as CYP450 mediated compound reduction at 100 uM after 17.1 min by LC-MS/MS analysis in presence of NADPH; type: ADME; details: read-out: Drug metabolism
Value type: metabolised at 0.285 h, 100 µM (%)
Reply numerically in %, unit not repeated.

Task: Could you tell me which metabolised at 0.285 h, 100 µM is on file for `CCOC(=O)c1ccc(NC(=O)CCN(c2cccc(Oc3ccccc3)c2)S(=O)(=O)c2ccc(F)cc2)cc1` ?
Result: 36

* * *

test system: CYP450; experiment: Drug metabolism in KM rat liver microsomes assessed as CYP450 mediated compound oxidation at 100 uM after 17.1 min by LC-MS/MS analysis in presence of NADPH; type: ADME; conditions: read-out: Drug metabolism
Value type: metabolised at 0.285 h, 100 µM (%)
Provide the reading as a plain figure in %.

Task: Dear colleague, I am looking for the recorded metabolised at 0.285 h, 100 µM of the following compound: `CCOC(=O)c1ccc(NC(=O)CCN(c2cccc(Oc3ccccc3)c2)S(=O)(=O)c2ccc(F)cc2)cc1`
Result: 36

* * *

target: Cholesteryl ester transfer protein (Homo sapiens, UniProt P11597); test: Inhibition of full-length human recombinant CETP expressed in CHO cells by BODIPY-CE dye based fluorescence assay; format: cell-based
pIC50: −log10 of the molar value.
Decide by pIC50: equal to or exceeding 6 means TRUE, less means FALSE.

{"Compound string": "CCOC(=O)c1ccc(NC(=O)CCN(Cc2ccc(F)cc2)c2cc(Cl)cc(-c3ccccc3)c2)cc1", "Assigned category": "FALSE"}
{"Compound string": "CCOC(=O)c1ccc(NC(=O)CCN(Cc2ccc(F)cc2)c2ccc(Cl)c(Cl)c2)cc1", "Assigned category": "FALSE"}
{"Compound string": "O=C(CCN(Cc1ccc(F)cc1)c1ccc(Cl)c(Cl)c1)Nc1ccc(C(=O)O)cc1", "Assigned category": "FALSE"}
{"Compound string": "CCOC(=O)c1ccc(NC(=O)CCN(Cc2ccc(F)cc2)c2cccc(Oc3ccccc3)c2)cc1", "Assigned category": "TRUE"}

Task: Decide: pIC50 of `CCOC(=O)c1ccc(N2CCN(C(=O)CCN(Cc3ccc(F)cc3)c3ccc(Cl)c(-c4ccccc4)c3)CC2)cc1` >= 6?
Result: FALSE

* * *

Biological target: Cholesteryl ester transfer protein (Homo sapiens, UniProt P11597)
Sequence (P11597 whole entry): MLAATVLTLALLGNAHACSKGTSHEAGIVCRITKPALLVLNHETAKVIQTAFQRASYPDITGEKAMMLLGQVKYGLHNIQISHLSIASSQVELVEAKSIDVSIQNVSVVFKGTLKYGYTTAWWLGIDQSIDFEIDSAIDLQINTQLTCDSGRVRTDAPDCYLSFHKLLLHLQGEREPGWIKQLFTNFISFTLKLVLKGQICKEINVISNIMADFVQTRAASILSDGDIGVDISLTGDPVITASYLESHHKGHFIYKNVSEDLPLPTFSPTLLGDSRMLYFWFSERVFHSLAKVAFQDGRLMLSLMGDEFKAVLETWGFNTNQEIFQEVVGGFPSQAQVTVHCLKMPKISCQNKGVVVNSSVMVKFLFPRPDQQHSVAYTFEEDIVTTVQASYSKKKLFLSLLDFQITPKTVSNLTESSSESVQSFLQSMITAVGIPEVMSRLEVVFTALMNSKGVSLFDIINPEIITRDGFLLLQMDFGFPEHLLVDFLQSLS
Assay: Inhibition of full-length human recombinant CETP expressed in CHO cells by BODIPY-CE dye based fluorescence assay
Assay type: cell-based
Catalogue of IC50 values
Please respond with the number in µM and leave the unit unwritten.

{"Compound string": "CCOC(=O)c1ccc(NC(=O)CCN(Cc2ccc(F)cc2)c2ccc(Cl)c(-c3ccccc3)c2)cc1", "Unit name": "µM", "IC50": 2.7}

Task: Write down the reported IC50 of `CCOC(=O)c1ccc(NC(=O)CCN(c2ccc(Cl)c(-c3ccccc3)c2)S(=O)(=O)c2ccc(F)cc2)cc1` , test system: Cholesteryl ester transfer protein (Homo sapiens, UniProt P11597).
Result: 1.3

Task: # get_value(readout= IC50, system= Cholesteryl ester transfer protein (Homo sapiens, UniProt P11597)) for `CCOC(=O)c1ccc(N2CCN(C(=O)CCN(Cc3ccc(F)cc3)c3cccc(Oc4ccccc4)c3)CC2)cc1`
Result: 0.69

Task: # value lookup — system Cholesteryl ester transfer protein (Homo sapiens, UniProt P11597), readout IC50, item `CCOC(=O)c1ccc(NC(=O)CCN(Cc2cc(C(F)(F)F)cc(C(F)(F)F)c2)c2ccc(Cl)c(Cl)c2)cc1`
Result: 5.4

Task: Lookup: IC50 / Cholesteryl ester transfer protein (Homo sapiens, UniProt P11597) / `CCOC(=O)c1ccc(NC(=O)CCN(c2cc(Cl)cc(-c3ccccc3)c2)S(=O)(=O)c2ccc(F)cc2)cc1`
Result: 2.3

Task: Fill in the recorded IC50 for this molecule, with Cholesteryl ester transfer protein (Homo sapiens, UniProt P11597) as test system: `CCOC(=O)c1ccc(NC(=O)CCN(c2cccc(Oc3ccccc3)c2)S(=O)(=O)c2ccc(F)cc2)cc1`
Result: 0.15

Task: Find the measured IC50: item `CCOC(=O)c1ccc(N2CCN(C(=O)CCN(Cc3ccc(F)cc3)c3ccc(Cl)c(Cl)c3)CC2)cc1` , target or system Cholesteryl ester transfer protein (Homo sapiens, UniProt P11597).
Result: 12.4

Task: Kindly state the measured IC50 obtained for `CCOC(=O)c1ccc(N2CCN(C(=O)CCN(Cc3ccc(F)cc3)c3ccc(Oc4ccccc4)cc3)CC2)cc1` with Cholesteryl ester transfer protein (Homo sapiens, UniProt P11597).
Result: 6.7
